Cited source: patent US7220756B2

- ASSAY_TARGET: human cloned 5-HT6 receptors (Homo sapiens, UniProt P50406)
- Construct: expressed in transfected cells; host or cells: HeLa cells
- Sequence (P50406 whole entry): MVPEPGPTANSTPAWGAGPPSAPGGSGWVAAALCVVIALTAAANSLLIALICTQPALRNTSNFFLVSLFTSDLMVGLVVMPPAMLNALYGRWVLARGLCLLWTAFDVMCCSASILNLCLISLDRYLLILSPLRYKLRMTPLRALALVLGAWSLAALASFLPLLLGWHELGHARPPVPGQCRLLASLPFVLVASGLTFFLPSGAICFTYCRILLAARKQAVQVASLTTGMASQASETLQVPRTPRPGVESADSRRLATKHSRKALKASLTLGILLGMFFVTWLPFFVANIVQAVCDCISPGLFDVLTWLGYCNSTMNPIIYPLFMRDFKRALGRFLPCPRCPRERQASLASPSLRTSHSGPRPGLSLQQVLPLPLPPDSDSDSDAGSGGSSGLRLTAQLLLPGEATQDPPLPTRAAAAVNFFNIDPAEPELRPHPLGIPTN
- ASSAY_OVERVIEW: 5-HT6 binding affinity, [3H]-LSD displacement
OUTCOME_MEASURE: Ki (nM)

LINE_NOTATION: NCCc1cn(S(=O)(=O)c2ccccc2)c2sccc12
MEASUREMENT_UNITS: nM
OBSERVED: 7.5
